# TESTED_TARGET: recombinant Human Phosphodiesterase B2 (PDE4B2) (Homo sapiens, UniProt Q07343)
# Sequence (Q07343 1-564 isoform Q07343-2): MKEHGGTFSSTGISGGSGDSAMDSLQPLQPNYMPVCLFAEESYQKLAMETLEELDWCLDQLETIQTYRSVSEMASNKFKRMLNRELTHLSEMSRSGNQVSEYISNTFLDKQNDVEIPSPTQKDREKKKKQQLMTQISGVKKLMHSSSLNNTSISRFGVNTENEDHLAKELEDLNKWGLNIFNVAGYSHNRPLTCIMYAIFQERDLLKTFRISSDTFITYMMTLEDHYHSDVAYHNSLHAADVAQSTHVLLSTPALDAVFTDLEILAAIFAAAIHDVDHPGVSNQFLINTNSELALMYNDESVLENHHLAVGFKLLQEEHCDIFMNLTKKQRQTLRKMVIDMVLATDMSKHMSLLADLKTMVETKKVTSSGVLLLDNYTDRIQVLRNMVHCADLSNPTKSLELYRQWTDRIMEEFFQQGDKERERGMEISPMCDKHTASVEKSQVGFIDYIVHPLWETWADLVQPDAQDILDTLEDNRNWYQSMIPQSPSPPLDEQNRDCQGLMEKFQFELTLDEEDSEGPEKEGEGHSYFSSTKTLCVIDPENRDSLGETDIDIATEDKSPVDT
# ASSAY_PROCEDURE: Human Phosphodiesterase B2 Radiometric Assay
# Type: biochemical
# CONDITION_DESCRIPTION: radiometric SPA assay, [3H]cyclic AMP 8 nM, read-out: PDE4B2 pIC50 (converted)
# key: entry, value: IC50
MEASUREMENT_KIND: IC50 (nM)

* O=C(N[C@H]1CC[C@@H](n2c(=O)c3cc(F)cnc3n(C3CCSCC3)c2=O)CC1)c1cn2c(n1)CCCC2 | 0.398
* CN(C)c1ccc(C(=O)NC2CCC(n3c(=O)c4cc(F)cnc4n(C4CCSCC4)c3=O)CC2)cc1 (stereo not shown) | 0.501
* O=C(N[C@H]1CC[C@@H](n2c(=O)c3cc(F)cnc3n(C3CCSCC3)c2=O)CC1)C(O)c1ccc(O)cc1 (stereo partly shown) [Example 64b] | 0.316
* O=C(N[C@H]1CC[C@@H](n2c(=O)c3cc(F)cnc3n(C3CCSCC3)c2=O)CC1)c1cn2cc(F)ccc2n1 | 0.126

----------
# TESTED_TARGET: recombinant Human Phosphodiesterase B2 (PDE4B2) (Homo sapiens)
# ASSAY_PROCEDURE: Human Phosphodiesterase B2 Alpha Screen Assay
# Type: biochemical
# CONDITION_DESCRIPTION: Alpha Screen cAMP assay
Below is a list of entries, each paired with its recorded IC50 value.
MEASUREMENT_KIND: IC50 (nM)

* O=C(CCc1cccc(O)c1)N[C@H]1CC[C@@H](n2c(=O)c3cc(F)cnc3n(C3CCSCC3)c2=O)CC1 | 2.53
* O=C(N[C@H]1CC[C@@H](n2c(=O)c3cc(F)cnc3n(C3CCSCC3)c2=O)CC1)c1ccccc1 | 2.72
* O=C(N[C@H]1CC[C@@H](n2c(=O)c3cc(F)cnc3n(C3CCSCC3)c2=O)CC1)c1cn2ccccc2n1 | 1.1
* O=C(N[C@H]1CC[C@@H](n2c(=O)c3cc(F)cnc3n(C3CCSCC3)c2=O)CC1)c1cccc(O)c1 | 1.8
* O=C(N[C@H]1CC[C@@H](n2c(=O)c3cc(F)cnc3n(C3CCSC3)c2=O)CC1)c1cc(CO)ccc1O (relative stereo) | 5.51
* O=C(N[C@H]1CC[C@@H](n2c(=O)c3cc(F)cnc3n(C3CCSCC3)c2=O)CC1)c1ccccc1O | 4.65
* O=C(N[C@H]1CC[C@@H](n2c(=O)c3cc(F)cnc3n(C3CCSCC3)c2=O)CC1)c1cccc2cccnc12 | 1.31
* O=C(N[C@H]1CC[C@@H](n2c(=O)c3cc(F)cnc3n(C3CCSC3)c2=O)CC1)C1CC1 (relative stereo) | 10.7
* Cc1ccc(C(=O)N[C@H]2CC[C@@H](n3c(=O)c4cc(F)cnc4n(C4CCSCC4)c3=O)CC2)cc1O | 1.12
* O=C(N[C@H]1CC[C@@H](n2c(=O)c3cc(F)cnc3n(C3CCSCC3)c2=O)CC1)c1cc(CO)ccc1O | 4.31
* O=C(N[C@H]1CC[C@@H](n2c(=O)c3cc(F)cnc3n(C3CCSCC3)c2=O)CC1)[C@H](O)C1CCCCC1 | 0.887
* O=C(N[C@H]1CC[C@@H](n2c(=O)c3cc(F)cnc3n(C3CCSCC3)c2=O)CC1)c1cccn2ccnc12 | 5.59
* O=C(N[C@H]1CC[C@@H](n2c(=O)c3cc(F)cnc3n(C3CCSCC3)c2=O)CC1)c1n[nH]c2ccccc12 | 1.35
* O=C(N[C@H]1CC[C@@H](n2c(=O)c3cc(F)cnc3n(C3CCSCC3)c2=O)CC1)c1cc2ccccn2n1 | 0.674
